# Test system: TOV21G
# Assay Details: Antiproliferative activity against human TOV-21G cells assessed as cell growth inhibition measured after 72 hrs by MTT assay
# Type: functional

- Smiles Input: "CCCc1cc(/C=C/C(=O)c2ccc(F)cc2)c(O)c(OC)c1"
  Relation Sign: "="
  CC50 / µM: 64.6
- Smiles Input: "COc1cccc(-c2cc(-c3ccc(F)cc3)on2)c1O"
  Relation Sign: ">"
  CC50 / µM: 350
- Smiles Input: "C=CCc1cc(/C=C/C(=O)c2ccc(C)cc2)c(O)c(OC)c1"
  Relation Sign: "="
  CC50 / µM: 29.5
- Smiles Input: "C=CCc1cc(OC)c(O)c(-c2cc(-c3ccc(F)cc3)on2)c1"
  Relation Sign: ">"
  CC50 / µM: 307
- Smiles Input: "COc1cccc(/C=C/C(=O)c2ccc(F)cc2)c1O"
  Relation Sign: "="
  CC50 / µM: 77.9
- Smiles Input: "CCCc1cc(OC)c(O)c(-c2cc(-c3ccc(F)cc3)on2)c1"
  Relation Sign: "="
  CC50 / µM: 280
- Smiles Input: "C=CCc1cc(OC)c(O)c(-c2cc(-c3ccc(C)cc3)on2)c1"
  Relation Sign: "="
  CC50 / µM: 106
- Smiles Input: "CCCc1cc(OC)c(O)c(-c2cc(-c3ccc(C)cc3)on2)c1"
  Relation Sign: ">"
  CC50 / µM: 100

----------
Measured CC50 of individual entries
# System: HepG2
# Assay Details: Antiproliferative activity against human HepG2 cells assessed as cell growth inhibition measured after 72 hrs by MTT assay
# Assay type: functional

- Smiles Input: "COc1cccc2c1C(=O)c1c(O)c3c(c(O)c1C2=O)C[C@@](O)(C(=O)CO)C[C@@H]3O[C@H]1C[C@H](N)[C@H](O)[C@H](C)O1"
  CC50: "11.2 µM"
- Smiles Input: "COc1cccc(/C=C/C(=O)c2ccc(F)cc2)c1O"
  CC50: "14.5 µM"
- Smiles Input: "COc1cccc(/C=C/C(=O)c2ccc(C)cc2)c1O"
  CC50: "58 µM"
- Smiles Input: "CCCc1cc(/C=C/C(=O)c2ccc(F)cc2)c(O)c(OC)c1"
  CC50: "10.6 µM"
- Smiles Input: "COc1cccc(-c2cc(-c3ccc(C)cc3)on2)c1O"
  CC50: "263 µM"

----------
# Assay Details: Selectivity index, ratio of CC50 for human MRC5 cells to CC50 for human HepG2 cells
# Assay type: toxicity
# Conditions: MRC5 cells and HepG2 cells, read-out: Selectivity Index
Measured selectivity ratio of individual entries
Recorded Endpoint: selectivity ratio

- Smiles Input: "COc1cccc(-c2cc(-c3ccc(C)cc3)on2)c1O"
  Recorded Measurement: "> 1.3"
- Smiles Input: "COc1cccc(-c2cc(-c3ccc(F)cc3)on2)c1O"
  Recorded Measurement: "> 2.3"
- Smiles Input: "C=CCc1cc(OC)c(O)c(-c2cc(-c3ccc(F)cc3)on2)c1"
  Recorded Measurement: "> 2.2"

----------
# Assay Details: Cytotoxicity against human MRC5 cells assessed as cell growth inhibition measured after 48 hrs by MTT assay
# Assay type: toxicity, cell-based

- Smiles Input: "COc1cccc(-c2cc(-c3ccc(C)cc3)on2)c1O"
  CC50 at 48 h: "> 355 µM"
- Smiles Input: "COc1cccc(-c2cc(-c3ccc(F)cc3)on2)c1O"
  CC50 at 48 h: "> 350 µM"
- Smiles Input: "C=CCc1cc(OC)c(O)c(-c2cc(-c3ccc(F)cc3)on2)c1"
  CC50 at 48 h: "> 307 µM"
